# studyTarget: Kappa-type opioid receptor (Homo sapiens)
# assayNotes: Ability to inhibit agonist-stimulated (U69,593) [35S]GTP-gamma-S, binding, using cloned human Opioid receptor kappa 1 expressed in CHO cells
# Type: functional, cell-based
Where a SMILES comes first, the peptide text is derived from it. [ ]: non-standard residue; d: D form. The star is where a group is joined. Tyr(Nα,Nα-allyl2) = C=CCN(CC=C)[C@@H](Cc1ccc(O)cc1)C(=O)*; Aib = CC(C)(N)C(=O)O
propertyName: Ke (nM)
A number alone suffices; assume nM.

INSERT INTO assay_data (compound, propertyname, valueobserved) VALUES
  ('Oc1ccc2c3c1O[C@H]1c4[nH]c5ccccc5c4C[C@@]4(O)[C@@H](C2)N(CC2CC2)CC[C@]314', 'Ke', 16.1),
  ('CC1CN(CCCc2ccccc2)C2C[C@H](NC(=O)C3(c4ccccc4)CCCC3)CC1(c1cccc(O)c1)C2 (stereo not given in full)', 'Ke', 5.51),
  ('CC1CN(CCCc2ccccc2)C2CC(NC(=O)C3(c4ccccc4)CCCC3)CC1(c1cccc(O)c1)C2 (racemic)', 'Ke', 3.52),
  ('C=CCN(CC=C)[C@@H](Cc1ccc(O)cc1)C(=O)NC(C)(C)C(=O)NC(C)(C)C(=O)N[C@@H](Cc1ccccc1)C(=O)N[C@@H](CC(C)C)C(=O)O ({Tyr(Nα,Nα-allyl2)}-[Aib][Aib]FL-OH)', 'Ke', 339);

Let us examine a further case.
Query: Form entry - test system: Kappa-type opioid receptor (Homo sapiens); read-out: Ke; compound: CC1CN(CCCc2ccccc2)C2C[C@@H](NC(=O)C3(c4ccccc4)CCCC3)CC1(c1cccc(O)c1)C2 (single isomer, unassigned; (+))
Result: 17.9

----------
# studyTarget: Mu-type opioid receptor (Homo sapiens)
# assayNotes: Ability to inhibit agonist-stimulated (DAMGO) [35S]GTP-gamma-S, binding, using cloned human Opioid receptor mu 1expressed in CHO cells
# Format: functional, cell-based
Where a SMILES comes first, the peptide text is derived from it. [ ]: non-standard residue; d: D form. The star is where a group is joined. Tyr(Nα,Nα-allyl2) = C=CCN(CC=C)[C@@H](Cc1ccc(O)cc1)C(=O)*; Aib = CC(C)(N)C(=O)O
The molecules listed here are annotated with their Ke.
A number alone suffices; assume nM.

Examples with answers:
INSERT INTO results (molecule, valueobserved) VALUES
  ('C=CCN(CC=C)[C@@H](Cc1ccc(O)cc1)C(=O)NC(C)(C)C(=O)NC(C)(C)C(=O)N[C@@H](Cc1ccccc1)C(=O)N[C@@H](CC(C)C)C(=O)O ({Tyr(Nα,Nα-allyl2)}-[Aib][Aib]FL-OH)', 42),
  ('Oc1ccc2c3c1O[C@H]1c4[nH]c5ccccc5c4C[C@@]4(O)[C@@H](C2)N(CC2CC2)CC[C@]314', 33),
  ('CC1CN(CCCc2ccccc2)C2C[C@@H](NC(=O)C3(c4ccccc4)CCCC3)CC1(c1cccc(O)c1)C2 (single isomer, unassigned; (+))', 8.7),
  ('CC1CN(CCCc2ccccc2)C2C[C@H](NC(=O)C3(c4ccccc4)CCCC3)CC1(c1cccc(O)c1)C2 (stereo not given in full)', 40.3);

Let us examine a further case.
Query: Which Ke is listed for CC1CN(CCCc2ccccc2)C2CC(NC(=O)C3(c4ccccc4)CCCC3)CC1(c1cccc(O)c1)C2 (racemic) ?
Result: 12.2

----------
The compounds listed here are annotated with their pIC50.
# studyTarget: Delta-type opioid receptor (Homo sapiens)
# assayNotes: Inverse agonist potency at cloned human delta-opioid receptor
# Assay type: functional
The scale used: pIC50 is minus the common logarithm of the concentration in molar units.

Query: Which pIC50 is listed for CC1CN(CCCc2ccccc2)C2C[C@@H](NC(=O)C3(c4ccccc4)CCCC3)CC1(c1cccc(O)c1)C2 (single isomer, unassigned; (+)) ?
Result: 8.74

Query: Which pIC50 is listed for CC1CN(CCCc2ccccc2)C2CC(NC(=O)C3(c4ccccc4)CCCC3)CC1(c1cccc(O)c1)C2 (racemic) ?
Result: 8.62

----------
# studyTarget: Delta-type opioid receptor (Homo sapiens, UniProt P41143)
# Sequence (P41143 whole entry): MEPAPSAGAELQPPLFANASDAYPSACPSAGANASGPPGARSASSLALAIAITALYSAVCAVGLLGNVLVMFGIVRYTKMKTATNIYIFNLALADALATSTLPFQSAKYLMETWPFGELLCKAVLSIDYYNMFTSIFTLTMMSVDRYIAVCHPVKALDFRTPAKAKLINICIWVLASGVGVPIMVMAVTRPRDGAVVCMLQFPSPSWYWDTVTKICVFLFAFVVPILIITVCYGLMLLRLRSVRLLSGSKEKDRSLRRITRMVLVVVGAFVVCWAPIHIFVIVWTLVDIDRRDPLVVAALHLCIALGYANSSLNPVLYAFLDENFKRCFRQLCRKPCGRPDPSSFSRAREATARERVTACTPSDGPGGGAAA
# assayNotes: Ability to inhibit agonist-stimulated (DPDPE) [35S]GTP-gamma-S, binding, using cloned human opioid receptor delta 1 expressed in CHO cells
# Format: functional, cell-based
Where a SMILES comes first, the peptide text is derived from it. [ ]: non-standard residue; d: D form. The star is where a group is joined. Tyr(Nα,Nα-allyl2) = C=CCN(CC=C)[C@@H](Cc1ccc(O)cc1)C(=O)*; Aib = CC(C)(N)C(=O)O
The compounds listed here are annotated with their Ke.

INSERT INTO results (compound, propertyname, valueobserved) VALUES
  ('Oc1ccc2c3c1O[C@H]1c4[nH]c5ccccc5c4C[C@@]4(O)[C@@H](C2)N(CC2CC2)CC[C@]314', 'Ke', '0.21 nM');

Query: Which Ke is listed for CC1CN(CCCc2ccccc2)C2C[C@@H](NC(=O)C3(c4ccccc4)CCCC3)CC1(c1cccc(O)c1)C2 (single isomer, unassigned; (+)) ?
Result: 0.15 nM

Query: Which Ke is listed for CC1CN(CCCc2ccccc2)C2CC(NC(=O)C3(c4ccccc4)CCCC3)CC1(c1cccc(O)c1)C2 (racemic) ?
Result: 0.55 nM

Query: Which Ke is listed for C=CCN(CC=C)[C@@H](Cc1ccc(O)cc1)C(=O)NC(C)(C)C(=O)NC(C)(C)C(=O)N[C@@H](Cc1ccccc1)C(=O)N[C@@H](CC(C)C)C(=O)O ({Tyr(Nα,Nα-allyl2)}-[Aib][Aib]FL-OH) ?
Result: 7.85 nM

Query: Which Ke is listed for CC1CN(CCCc2ccccc2)C2C[C@H](NC(=O)C3(c4ccccc4)CCCC3)CC1(c1cccc(O)c1)C2 (stereo not given in full) ?
Result: 4.24 nM

----------
# studyTarget: Delta-type opioid receptor (Homo sapiens)
# assayNotes: Binding affinity towards opioid receptor delta 1 expressed in CHO cells was determined by using [3H]DPDPE as radioligand
# Format: cell-based
Where a SMILES comes first, the peptide text is derived from it. [ ]: non-standard residue; d: D form. The star is where a group is joined. Tyr(Nα,Nα-allyl2) = C=CCN(CC=C)[C@@H](Cc1ccc(O)cc1)C(=O)*; Aib = CC(C)(N)C(=O)O
propertyName: pKi
The scale used: pKi is minus the common logarithm of the concentration in molar units.

Query: Which pKi is listed for C=CCN(CC=C)[C@@H](Cc1ccc(O)cc1)C(=O)NC(C)(C)C(=O)NC(C)(C)C(=O)N[C@@H](Cc1ccccc1)C(=O)N[C@@H](CC(C)C)C(=O)O ({Tyr(Nα,Nα-allyl2)}-[Aib][Aib]FL-OH) ?
Result: 7.72

----------
# studyTarget: Opioid receptors; mu & delta (Homo sapiens) (UniProt P41143+P35372)
# Sequence (P35372 whole entry, looked up): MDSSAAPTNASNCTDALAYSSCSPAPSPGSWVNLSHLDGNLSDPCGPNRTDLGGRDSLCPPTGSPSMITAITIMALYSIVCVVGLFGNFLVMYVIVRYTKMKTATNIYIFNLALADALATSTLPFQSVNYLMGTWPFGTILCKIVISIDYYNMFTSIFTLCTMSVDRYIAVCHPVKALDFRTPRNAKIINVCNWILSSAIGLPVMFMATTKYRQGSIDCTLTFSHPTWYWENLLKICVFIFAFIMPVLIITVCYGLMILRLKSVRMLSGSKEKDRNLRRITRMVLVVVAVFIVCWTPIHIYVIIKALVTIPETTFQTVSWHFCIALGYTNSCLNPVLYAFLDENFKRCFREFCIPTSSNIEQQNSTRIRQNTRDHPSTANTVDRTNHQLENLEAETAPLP
# Sequence (P41143 whole entry, looked up): as the sequence (P41143 whole entry) above
# assayNotes: Selectivity ratio of agonist stimulated [35S]GTP-gamma-S, binding in cloned human mu-opioid receptor versus delta-opioid receptor
# Format: functional
Where a SMILES comes first, the peptide text is derived from it. [ ]: non-standard residue; d: D form. The star is where a group is joined. Tyr(Nα,Nα-allyl2) = C=CCN(CC=C)[C@@H](Cc1ccc(O)cc1)C(=O)*; Aib = CC(C)(N)C(=O)O
propertyName: Selectivity ratio
Keep the answer to the number alone.

Examples with answers:
INSERT INTO assay_data (molecule, propertyname, valueobserved) VALUES
  ('C=CCN(CC=C)[C@@H](Cc1ccc(O)cc1)C(=O)NC(C)(C)C(=O)NC(C)(C)C(=O)N[C@@H](Cc1ccccc1)C(=O)N[C@@H](CC(C)C)C(=O)O ({Tyr(Nα,Nα-allyl2)}-[Aib][Aib]FL-OH)', 'Selectivity ratio', 5.4),
  ('CC1CN(CCCc2ccccc2)C2C[C@H](NC(=O)C3(c4ccccc4)CCCC3)CC1(c1cccc(O)c1)C2 (some centres undefined)', 'Selectivity ratio', 9.5),
  ('CC1CN(CCCc2ccccc2)C2CC(NC(=O)C3(c4ccccc4)CCCC3)CC1(c1cccc(O)c1)C2 (racemic)', 'Selectivity ratio', 22);

Query: Which Selectivity ratio is listed for CC1CN(CCCc2ccccc2)C2C[C@@H](NC(=O)C3(c4ccccc4)CCCC3)CC1(c1cccc(O)c1)C2 (single isomer, unassigned; (+)) ?
Result: 58

----------
The molecules listed here are annotated with their Selectivity ratio.
# studyTarget: Opioid receptors; delta & kappa (Homo sapiens) (UniProt P41145+P41143)
# Sequence (P41145 whole entry): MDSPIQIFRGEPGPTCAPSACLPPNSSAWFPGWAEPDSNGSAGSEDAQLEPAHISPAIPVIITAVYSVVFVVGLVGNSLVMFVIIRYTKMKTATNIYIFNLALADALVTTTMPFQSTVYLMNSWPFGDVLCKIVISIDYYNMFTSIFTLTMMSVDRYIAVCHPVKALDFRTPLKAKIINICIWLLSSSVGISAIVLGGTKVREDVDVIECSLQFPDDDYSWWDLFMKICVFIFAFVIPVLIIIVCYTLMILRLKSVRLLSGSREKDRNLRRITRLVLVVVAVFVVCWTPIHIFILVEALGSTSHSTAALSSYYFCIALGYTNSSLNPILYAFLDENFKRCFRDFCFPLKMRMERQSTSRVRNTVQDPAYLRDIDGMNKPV
# Sequence (P41143 whole entry, looked up): as the sequence (P41143 whole entry) above
# Sequence (P41145 whole entry, looked up): as the sequence (P41145 whole entry) above
# assayNotes: Selectivity ratio of agonist stimulated [35S]GTP-gamma-S, binding in cloned human kappa-opioid receptor versus delta-opioid receptor
# Assay type: functional
Where a SMILES comes first, the peptide text is derived from it. [ ]: non-standard residue; d: D form. The star is where a group is joined. Tyr(Nα,Nα-allyl2) = C=CCN(CC=C)[C@@H](Cc1ccc(O)cc1)C(=O)*; Aib = CC(C)(N)C(=O)O
Keep the answer to the number alone.

Examples with answers:
INSERT INTO results (molecule, studytarget, valueobserved) VALUES
  ('CC1CN(CCCc2ccccc2)C2C[C@H](NC(=O)C3(c4ccccc4)CCCC3)CC1(c1cccc(O)c1)C2 (some centres undefined)', 'Opioid receptors; delta & kappa (Homo sapiens) (UniProt P41145+P41143)', 1.3),
  ('C=CCN(CC=C)[C@@H](Cc1ccc(O)cc1)C(=O)NC(C)(C)C(=O)NC(C)(C)C(=O)N[C@@H](Cc1ccccc1)C(=O)N[C@@H](CC(C)C)C(=O)O ({Tyr(Nα,Nα-allyl2)}-[Aib][Aib]FL-OH)', 'Opioid receptors; delta & kappa (Homo sapiens) (UniProt P41145+P41143)', 43);

Query: Which Selectivity ratio is listed for CC1CN(CCCc2ccccc2)C2CC(NC(=O)C3(c4ccccc4)CCCC3)CC1(c1cccc(O)c1)C2 (racemic) ?
Result: 6.4

Query: Which Selectivity ratio is listed for CC1CN(CCCc2ccccc2)C2C[C@@H](NC(=O)C3(c4ccccc4)CCCC3)CC1(c1cccc(O)c1)C2 (single isomer, unassigned; (+)) ?
Result: 119
